Method notes: log D / log P, octanol/water
Type: physicochemical
Applied conditions: run 1, pH 6.41

- Molecule: "CN1CCN(Cc2ccc(-c3cnc(N4CCOC(Cn5nnc6ncc(-c7cnn(C)c7)nc65)C4)nc3)cc2)CC1 (stereo not shown)"
  logD: 1.3

###

Method notes: Equilibrium solubility at different pHs and excipients by HPLC
Format: physicochemical
Applied conditions: aqueous buffer, thermodynamic from solid; 0.1 M acetate buffer (pH 4.5)

- Compound: "CN1CCN(Cc2ccc(-c3cnc(N4CCOC(Cn5nnc6ncc(-c7cnn(C)c7)nc65)C4)nc3)cc2)CC1 (stereo not shown)"
  solubility at 24 h, µg/mL: 2290

###

Method notes: Pharmacokinetic study in beagle dogs
Format: in vivo
Applied conditions: male, beagle, dog, plasma, po, 5 mg/kg, capsule without MCC, beagle dogs, mean ± SD

- Molecule: "CN1CCN(Cc2ccc(-c3cnc(N4CCOC(Cn5nnc6ncc(-c7cnn(C)c7)nc65)C4)nc3)cc2)CC1 (stereo not shown)"
  Cmax: "60.3 ng/mL"

###

Method notes: Pharmacokinetic study in beagle dogs
Format: in vivo
Applied conditions: male, beagle, dog, plasma, po, 10 mg/kg, capsule with MCC, beagle dogs, mean ± SD

- Compound: "CN1CCN(Cc2ccc(-c3cnc(N4CCOC(Cn5nnc6ncc(-c7cnn(C)c7)nc65)C4)nc3)cc2)CC1 (stereo not shown)"
  Quantity unit: "ng·h/mL"
  AUC(0-inf): 424

###

Method notes: Pharmacokinetic study in beagle dogs
Assay type: in vivo
Applied conditions: male, beagle, dog, plasma, iv, 1 mg/kg, beagle dogs
Outcome measure: Tmax (min)

- Compound: "CN1CCN(Cc2ccc(-c3cnc(N4CCOC(Cn5nnc6ncc(-c7cnn(C)c7)nc65)C4)nc3)cc2)CC1 (stereo not shown)"
  Measured value: 4.98

###

Method notes: log D / log P, octanol/water
Format: physicochemical
Applied conditions: run 2, from log D and pKa
Outcome measure: logP at 24 h

- Compound: "CN1CCN(Cc2ccc(-c3cnc(N4CCOC(Cn5nnc6ncc(-c7cnn(C)c7)nc65)C4)nc3)cc2)CC1 (stereo not shown) [ABN401]"
  Measured value: 2.43

###

Method notes: Equilibrium solubility at different pHs and excipients by HPLC
Type: physicochemical
Applied conditions: aqueous buffer, thermodynamic from solid; 0.1 M citrate buffer (pH 4.5)
Method: Solutions at pH values of 1 to 12 were prepared using HCl and NaOH. At first, 10^−1 N, 10^−2 N, 10^−3 N, 10^−4 N, 10^−5 N, and 10^−6 N of HCl and NaOH solutions were prepared and their pH values were measured with a pH meter (Metrohm 827 pH lab, Zurich, Switzerland). […] The pH solubility of ABN401 was analyzed by HPLC and the pKa was determined by plotting a graph of log(solubility) against pH. […]
Outcome measure: solubility at 24 h (µg/mL)

- Compound: "CN1CCN(Cc2ccc(-c3cnc(N4CCOC(Cn5nnc6ncc(-c7cnn(C)c7)nc65)C4)nc3)cc2)CC1 (stereo not shown)"
  Measured value: 30

###

Method notes: Equilibrium solubility at different pHs and excipients by HPLC
Format: physicochemical
Applied conditions: hydrochloric acid solution, aqueous buffer, thermodynamic from solid; Hydrochloric (pH 5.0)
Outcome measure: solubility at 24 h (µg/mL)

- Compound: "CN1CCN(Cc2ccc(-c3cnc(N4CCOC(Cn5nnc6ncc(-c7cnn(C)c7)nc65)C4)nc3)cc2)CC1 (stereo not shown) [ABN401]"
  Measured value: 3920

###

Method notes: log D / log P, octanol/water
Type: physicochemical
Applied conditions: pH 6.4, run 3, pH 6.40

- Molecule: "CN1CCN(Cc2ccc(-c3cnc(N4CCOC(Cn5nnc6ncc(-c7cnn(C)c7)nc65)C4)nc3)cc2)CC1 (stereo not shown)"
  logD: 1.37

###

Method notes: Pharmacokinetic study in beagle dogs
Format: in vivo
Applied conditions: male, beagle, dog, plasma, iv, 1 mg/kg, beagle dogs, mean ± SD

- Compound: "CN1CCN(Cc2ccc(-c3cnc(N4CCOC(Cn5nnc6ncc(-c7cnn(C)c7)nc65)C4)nc3)cc2)CC1 (stereo not shown) [ABN401]"
  AUC(0-t), ng·h/mL: 266

###

Method notes: log D / log P, octanol/water
Format: physicochemical
Applied conditions: run 4, from log D and pKa
Outcome measure: logP at 24 h

- Compound: "CN1CCN(Cc2ccc(-c3cnc(N4CCOC(Cn5nnc6ncc(-c7cnn(C)c7)nc65)C4)nc3)cc2)CC1 (stereo not shown)"
  Outcome measure: "logP at 24 h"
  Measured value: 2.51

###

Method notes: Equilibrium solubility at different pHs and excipients by HPLC
Assay type: physicochemical
Applied conditions: 80% PEG 400 in 0.1 M acetate buffer, aqueous with cosolvent or surfactant or cyclodextrin, thermodynamic from solid; PEG 400 (80 %), co-solvent in 0.1 M acetate buffer pH 4.0

- Molecule: "CN1CCN(Cc2ccc(-c3cnc(N4CCOC(Cn5nnc6ncc(-c7cnn(C)c7)nc65)C4)nc3)cc2)CC1 (stereo not shown)"
  Quantity unit: "mg/mL"
  solubility at 24 h: 12.6

###

Method notes: Equilibrium solubility at different pHs and excipients by HPLC
Format: physicochemical
Applied conditions: aqueous buffer, thermodynamic from solid; 1× PBS (pH 7.4)
Outcome measure: solubility at 24 h (µg/mL)

- Compound: "CN1CCN(Cc2ccc(-c3cnc(N4CCOC(Cn5nnc6ncc(-c7cnn(C)c7)nc65)C4)nc3)cc2)CC1 (stereo not shown) [ABN401]"
  Measured value: 10

###

Method notes: Pharmacokinetic study in beagle dogs
Assay type: in vivo
Applied conditions: male, beagle, dog, plasma, po, 5 mg/kg, capsule with MCC, beagle dogs, mean ± SD

- Compound: "CN1CCN(Cc2ccc(-c3cnc(N4CCOC(Cn5nnc6ncc(-c7cnn(C)c7)nc65)C4)nc3)cc2)CC1 (stereo not shown)"
  MRT last, h: 8.6

###

Method notes: Pharmacokinetic study in beagle dogs
Assay type: in vivo
Applied conditions: male, beagle, dog, plasma, po, 10 mg/kg, capsule with MCC, beagle dogs, mean ± SD
Protocol: Male beagle dogs were purchased from Marshall, Beijing, China. They were housed under controlled humidity, temperature, and a 12L:12D lighting schedule. […] This study was reviewed, assessed, and approved by the Institutional Animal Care and Use Committee (IACUC) of the Korea Institute of Toxicology (KIT). […] After centrifugation at 13,200 rpm for 5 min, quantitative analysis was performed using LC-MS/MS. […]

- Compound: "CN1CCN(Cc2ccc(-c3cnc(N4CCOC(Cn5nnc6ncc(-c7cnn(C)c7)nc65)C4)nc3)cc2)CC1 (stereo not shown) [ABN401]"
  Quantity unit: "ng/mL"
  Cmax: 52.5

###

Method notes: Equilibrium solubility at different pHs and excipients by HPLC
Type: physicochemical
Applied conditions: aqueous buffer, thermodynamic from solid; 0.1 M acetate buffer (pH 5.0)

- Compound: "CN1CCN(Cc2ccc(-c3cnc(N4CCOC(Cn5nnc6ncc(-c7cnn(C)c7)nc65)C4)nc3)cc2)CC1 (stereo not shown)"
  solubility at 24 h, µg/mL: 560

###

Method notes: Pharmacokinetic study in beagle dogs
Assay type: in vivo
Applied conditions: male, beagle, dog, plasma, iv, 1 mg/kg, beagle dogs, mean ± SD
Outcome measure: half-life (h)

- Compound: "CN1CCN(Cc2ccc(-c3cnc(N4CCOC(Cn5nnc6ncc(-c7cnn(C)c7)nc65)C4)nc3)cc2)CC1 (stereo not shown)"
  Quantity unit: "h"
  Measured value: 1.9

###

Method notes: log D / log P, octanol/water
Format: physicochemical
Applied conditions: average ± SD of five runs
Procedure: ABN401 solution (10 μg/mL) was mixed with octanol at a ratio of 1:1 in a glass vial and placed horizontally in a Digital Bio Rotator (SeoLin Bioscience, Seongnam, Korea), and shaken at a constant 90 rpm for 24 h. […] The concentration of ABN401 at each phase was analyzed by HPLC and log P and log D were calculated using the Henderson-Hasselbalch equation below with the previously determined pKa value. […]

- Compound: "CN1CCN(Cc2ccc(-c3cnc(N4CCOC(Cn5nnc6ncc(-c7cnn(C)c7)nc65)C4)nc3)cc2)CC1 (stereo not shown)"
  logP at 24 h: 2.46

###

Method notes: Pharmacokinetic study in beagle dogs
Type: in vivo
Applied conditions: male, beagle, dog, plasma, po, 1 mg/kg, capsule with MCC, beagle dogs, mean ± SD
Outcome measure: AUC(0-inf) (ng·h/mL)

- Molecule: "CN1CCN(Cc2ccc(-c3cnc(N4CCOC(Cn5nnc6ncc(-c7cnn(C)c7)nc65)C4)nc3)cc2)CC1 (stereo not shown)"
  Quantity unit: "ng·h/mL"
  Measured value: 96.2

###

Method notes: Pharmacokinetic study in beagle dogs
Assay type: in vivo
Applied conditions: male, beagle, dog, plasma, po, 5 mg/kg, capsule without MCC, beagle dogs, mean ± SD
Outcome measure: half-life (h)

- Compound: "CN1CCN(Cc2ccc(-c3cnc(N4CCOC(Cn5nnc6ncc(-c7cnn(C)c7)nc65)C4)nc3)cc2)CC1 (stereo not shown)"
  Outcome measure: "half-life"
  Measured value: 4.9

###

Method notes: pH solubility and pKa determination
Type: physicochemical
Applied conditions: aqueous HCl and NaOH solutions, pH 1 to 12; from plot of log(solubility) against pH; read-out: apparent pKa

- Compound: "CN1CCN(Cc2ccc(-c3cnc(N4CCOC(Cn5nnc6ncc(-c7cnn(C)c7)nc65)C4)nc3)cc2)CC1 (stereo not shown)"
  pKa at 24 h: 7.49
